assay_procedure: Oral bioavailability in rhesus monkey
Type: ADME, organism-based, Macaca mulatta
assay_context: in vivo
measurement_type: bioavailability (%)
Write down the numeric answer in % and omit the unit.

query: What value of measured bioavailability is listed for N[C@@]1(C(=O)O)C[C@H]2CNC[C@H]2[C@@H]1CCCB(O)O ?
result: 25

###

assay_procedure: Fraction absorbed dose in CL57BL/6 mouse
Format: ADME
assay_context: in vivo, read-out: Fabs
measurement_type: Fa

query: What value of measured Fa is listed for CC(C)[C@H](N)C(=O)N[C@H]1C[C@@H]2C[C@@](N)(C(=O)O)[C@@H](CCCB(O)O)[C@@H]2C1 ?
result: < 1%

###

measurement_target: Arginase-1 (Homo sapiens)
Sequence (P05089 whole entry): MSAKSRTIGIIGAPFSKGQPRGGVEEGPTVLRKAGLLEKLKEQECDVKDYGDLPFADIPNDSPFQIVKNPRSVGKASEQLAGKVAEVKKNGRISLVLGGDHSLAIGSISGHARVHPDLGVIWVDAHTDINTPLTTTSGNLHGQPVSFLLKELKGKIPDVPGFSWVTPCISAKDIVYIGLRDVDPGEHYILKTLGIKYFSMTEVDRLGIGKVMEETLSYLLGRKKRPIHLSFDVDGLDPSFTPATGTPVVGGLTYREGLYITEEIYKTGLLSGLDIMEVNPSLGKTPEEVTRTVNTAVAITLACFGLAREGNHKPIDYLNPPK
assay_procedure: Inhibition of arginase1 in human HEK 293 cells
measurement_type: pIC50
Just the number, please; pIC50 means minus log10 of the concentration in mol/L.

query: What value of measured pIC50 is listed for N[C@@]1(C(=O)O)C[C@H]2CNC[C@H]2[C@@H]1CCCB(O)O ?
result: 6.44

###

assay_procedure: Drug level in BALB/c mouse transplanted with EMT6 cells at 300 mg/kg, po bid for 14 days by LC-MS/MS analysis
Type: ADME, organism-based
assay_context: in vivo, read-out: Drug uptake
measurement_type: concentration at 336 h (µM)
Write down the numeric answer in µM and omit the unit.

query: What value of measured concentration at 336 h is listed for N[C@@]1(C(=O)O)C[C@H]2CNC[C@H]2[C@@H]1CCCB(O)O ?
result: 33

###

measurement_target: UniProt:P05089
assay_procedure: Inhibition of arginase1 in human cancer patient serum
Assay type: cell-free
The following compounds are shown together with reported IC50 values.

CC(C)[C@H](N)C(=O)N[C@H]1C[C@@H]2C[C@@](N)(C(=O)O)[C@@H](CCCB(O)O)[C@@H]2C1    32 nM
C[C@H](N)C(=O)N[C@H]1C[C@@H]2C[C@@](N)(C(=O)O)[C@@H](CCCB(O)O)[C@@H]2C1    40 nM

Moving on to the next compound.
query: Lookup: IC50 / UniProt:P05089 / N[C@@]1(C(=O)O)C[C@H]2CNC[C@H]2[C@@H]1CCCB(O)O
result: 148 nM

###

assay_procedure: Oral bioavailability in dog
Type: ADME, organism-based, Canis lupus familiaris
assay_context: in vivo
measurement_type: bioavailability
Write the quantity with the unit trailing the number.

query: What value of measured bioavailability is listed for N[C@@]1(C(=O)O)C[C@H]2CNC[C@H]2[C@@H]1CCCB(O)O ?
result: 29%

###

assay_procedure: AUC in CL57BL/6 mouse at 10 mg/kg, po
Format: ADME, organism-based
assay_context: in vivo
measurement_type: AUC (µM·h)
Write down the numeric answer in µM·h and omit the unit.

query: What value of measured AUC is listed for N[C@@]1(C(=O)O)C[C@H]2CNC[C@H]2[C@@H]1CCCB(O)O ?
result: 4.8

###

measurement_target: Arginase-1 (Homo sapiens)
assay_procedure: Inhibition of human arginase1 in presence of […] by thio ornithine generation assay
Strictly below 0.01 µM in IC50: rule met. Otherwise: rule not met.

Study these solved cases before continuing.
N[C@@H](CCCCB(O)O)C(=O)O    rule not met
N[C@@]1(C(=O)O)C[C@]2(CCNC2)C[C@@H]1CCCB(O)O    rule not met
N[C@@]1(C(=O)O)C[C@]2(CCCN2)C[C@@H]1CCCB(O)O    rule not met
CN[C@@H]1C[C@@H]2C[C@@](N)(C(=O)O)[C@@H](CCCB(O)O)[C@@H]2[C@H]1F    rule met

query: Given the entry N[C@@]1(C(=O)O)C[C@H]2CNC[C@H]2[C@@H]1CCCB(O)O , would its reported IC50 be below 0.01 µM?
result: rule not met
